System: phospho-JNK
TEST: Phosphoprotein analysis in PMA-differentiated U937 cells: phospho-JNK/total JNK
Type: cell-based
CONDITION DETAILS: Homo sapiens, U-937, read-out: pJNK/Total JNK EC50
PROPERTY NAME: EC50 (nM)
Give bare numbers, in nM.

Asked: Provide only the value of recorded EC50 for Cc1cnc(-c2ccnc(C(C)(C)O)n2)cc1-n1c(C)cc(OCc2ncc(F)cc2F)c(Cl)c1=O (atropisomer, axis not shown; (P)) [Compound 49a]
Given back: 117

---

TEST: physchem
CONDITION DETAILS: 23 °C, organic solvent or mixture, thermodynamic from solid, low solubility at RT
PROPERTY NAME: solubility

Asked: Provide only the value of recorded solubility for Cc1cnc(-c2ccnc(C(C)(C)O)n2)cc1-n1c(C)cc(OCc2ncc(F)cc2F)c(Cl)c1=O (atropisomer, axis not shown; (P)) [Compound 49a]
Given back: < 10000 µg/mL
